Reference source for all entries: patent US7015237B2

# subject-of-test: MMP-13 (catalytic domain of collagenase 3) (Homo sapiens, UniProt P45452)
# test-summary: Thiopeptolide substrate hydrolysis assay, MMP-13
# Format: biochemical
# assay-context: catalytic domain, human; combinatorial compounds of Example 14; Table 2; read-out: MMP-13 IC50 CD/Human
recorded-endpoint: IC50 (µM)

Answered cases to consult:
Cc1ccc(CNC(=O)c2ccnc(C(=O)NCc3ccc(C)cc3)c2)cc1 [Example 14.54]
1.5
O=C(NCc1ccc(C(F)(F)F)cc1)c1ccnc(C(=O)NCc2ccc(C(F)(F)F)cc2)c1 [Example 14.61]
30
O=C(NCc1ccc2c(c1)OCO2)c1ccnc(C(=O)NCc2ccc3c(c2)OCO3)c1 [Example 14.2]
0.033
O=C(NC(Cc1ccccc1)c1ccccc1)c1ccnc(C(=O)NC(Cc2ccccc2)c2ccccc2)c1 (centres unmarked) [Example 14.21]
30
O=C(NCc1ccc(Cl)cc1Cl)c1ccnc(C(=O)NCc2ccc(Cl)cc2Cl)c1 [Example 14.22]
30
CC(NC(=O)c1ccnc(C(=O)NC(C)c2cccc3ccccc23)c1)c1cccc2ccccc12 (centres unmarked) [Example 14.65]
30

I: O=C(NCCc1c[nH]c2ccccc12)c1ccnc(C(=O)NCCc2c[nH]c3ccccc23)c1 [Example 14.79]
II: O=C(NCc1cccc(Cl)c1)c1ccnc(C(=O)NCc2cccc(Cl)c2)c1 [Example 14.25]
Input: // select label with min value of measured IC50 from [ I , II ] Refer to your chosen item by its label in the answer.
Output: II
(II: 0.074 µM, I: 30 µM)

----------
# subject-of-test: MMP-13 (catalytic domain of collagenase 3) (Homo sapiens)
# test-summary: Thiopeptolide substrate hydrolysis assay, MMP-13
# Type: biochemical
# assay-context: catalytic domain, human; combinatorial compounds of Example 14; Table 2; read-out: MMP-13 IC50 CD/Human
pIC50: −log10 of the molar value.
recorded-endpoint: pIC50

Consider the following illustrative entries.
COc1ccc(CNC(=O)c2ccnc(C(=O)NCc3ccc(OC)cc3)c2)cc1
6.89
O=C(NCc1ccncc1)c1ccnc(C(=O)NCc2ccncc2)c1
5.70
O=C(NCc1ccc(Cl)cc1)c1ccnc(C(=O)NCc2ccc(Cl)cc2)c1
6.52
O=C(NCc1cccnc1)c1ccnc(C(=O)NCc2cccnc2)c1
4.47
O=C(NCCc1ccccc1Oc1ccccc1)c1ccnc(C(=O)NCCc2ccccc2Oc2ccccc2)c1
4.52

a: COc1cccc(CNC(=O)c2ccnc(C(=O)NCc3cccc(OC)c3)c2)c1
b: O=C(NCc1cc(Cl)cc(Cl)c1)c1ccnc(C(=O)NCc2cc(Cl)cc(Cl)c2)c1
Input: Between item a and item b , which reported pIC50 is smaller? // output: label of the selected item
Output: b

----------
# subject-of-test: MMP-13 (catalytic domain of collagenase 3) (Homo sapiens)
# test-summary: Thiopeptolide substrate hydrolysis assay, MMP-13
# Format: biochemical
# assay-context: catalytic domain, human; combinatorial compounds of Example 14; Table 2; read-out: MMP-13 IC50 CD/Human
recorded-endpoint: IC50 (µM)

Record excerpt, results attached:
O=C(NCc1cccc2ccccc12)c1ccnc(C(=O)NCc2cccc3ccccc23)c1
30
COc1ccc(C(NC(=O)c2ccnc(C(=O)NC(c3ccc(OC)cc3)c3ccc(OC)cc3)c2)c2ccc(OC)cc2)cc1
30
O=C(NCc1ccccc1-c1ccccc1)c1ccnc(C(=O)NCc2ccccc2-c2ccccc2)c1
30
O=C(NCc1cccc(F)c1)c1ccnc(C(=O)NCc2cccc(F)c2)c1
0.18
O=C(NCc1ccc(F)c(C(F)(F)F)c1)c1ccnc(C(=O)NCc2ccc(F)c(C(F)(F)F)c2)c1
0.28

A: O=C(NCc1ccc(F)c(Cl)c1)c1ccnc(C(=O)NCc2ccc(F)c(Cl)c2)c1
B: Cc1ccc(CNC(=O)c2ccnc(C(=O)NCc3ccc(C)o3)c2)o1
C: CCc1ccc(CCNC(=O)c2ccnc(C(=O)NCCc3ccc(CC)cc3)c2)cc1
D: O=C(NCc1cccc(OC(F)(F)F)c1)c1ccnc(C(=O)NCc2cccc(OC(F)(F)F)c2)c1
Input: Returns the items ordered by IC50, from maximum to minimum. # list labels per requested ordering
Output: B, C, D, A
(B: 88 µM, C: 30 µM, D: 4 µM, A: 0.04 µM)

P: COc1ccc2[nH]cc(CCNC(=O)c3ccnc(C(=O)NCCc4c[nH]c5ccc(OC)cc45)c3)c2c1
Q: O=C(NCc1cccc(C(F)(F)F)c1)c1ccnc(C(=O)NCc2cccc(C(F)(F)F)c2)c1
Input: Between P and Q , which one shows the smaller IC50 number? // respond with label for picked entry
Output: Q

----------
recorded-endpoint: melting point

The examples below pair each entry with its known result.
O=C(NCc1ccc(F)cc1)c1cncc(C(=O)NCc2ccc(F)cc2)c1
216 to 218 °C
O=C(OCc1ccc2c(c1)OCO2)c1cncc(C(=O)OCc2ccc3c(c2)OCO3)c1
113 to 114 °C
COc1ccc(CNC(=O)c2cncc(C(=O)NCc3ccc(OC)cc3)c2)cc1
224 to 225 °C
O=C(NCc1ccc(Cl)cc1)c1cncc(C(=O)NCc2ccc(Cl)cc2)c1
224 to 225 °C

Input: Return melting point for the following molecule: "O=C(NCc1ccc2c(c1)OCO2)c1cncc(C(=O)NCc2ccc3c(c2)OCO3)c1"
Output: 194 to 195 °C

Input: Give a short answer stating reported melting point for "O=C(NCc1cccc(Cl)c1)c1cncc(C(=O)NCc2cccc(Cl)c2)c1" .
Output: 185 to 186 °C

----------
# subject-of-test: MMP-13 (catalytic domain of collagenase 3) (Homo sapiens, UniProt P45452)
# test-summary: Thiopeptolide substrate hydrolysis assay, MMP-13
# Format: biochemical
# assay-context: catalytic domain, human; combinatorial compounds of Example 14; Table 2; read-out: MMP-13 IC50 CD/Human
# Method: The assays used to evaluate the biological activity of the invention compounds are well known and routinely used by those skilled in the study of MMP inhibitors and their use to treat clinical conditions. […] In the tables, MMP-1 refers to full-length interstitial collagenase; MMP-3 refers to the catalytic domain of stromelysin-1; MMP-13 refers to the catalytic domain of collagenase 3. Test compounds were evaluated at various concentrations to determine their respective IC50 values.
recorded-endpoint: IC50 (µM)

O=C(NCc1ccccc1F)c1ccnc(C(=O)NCc2ccccc2F)c1
84

A: O=C(NCc1cccc(OC(F)F)c1)c1ccnc(C(=O)NCc2cccc(OC(F)F)c2)c1
B: Nc1ccc(CNC(=O)c2ccnc(C(=O)NCc3ccc(N)cc3)c2)cc1
C: O=C(NCc1cccs1)c1ccnc(C(=O)NCc2cccs2)c1
D: O=C(NCCC(c1ccccc1)c1ccccc1)c1ccnc(C(=O)NCCC(c2ccccc2)c2ccccc2)c1
Input: Sort the 4 compounds by IC50; largest first, smallest last. Thanks in advance for listing the labels in the requested order.
Output: B, D, C, A
